- target or test system: T1, human LAG-3 on the cell surface (human, UniProt P18627 23-525)
- T1 sequence (looked up): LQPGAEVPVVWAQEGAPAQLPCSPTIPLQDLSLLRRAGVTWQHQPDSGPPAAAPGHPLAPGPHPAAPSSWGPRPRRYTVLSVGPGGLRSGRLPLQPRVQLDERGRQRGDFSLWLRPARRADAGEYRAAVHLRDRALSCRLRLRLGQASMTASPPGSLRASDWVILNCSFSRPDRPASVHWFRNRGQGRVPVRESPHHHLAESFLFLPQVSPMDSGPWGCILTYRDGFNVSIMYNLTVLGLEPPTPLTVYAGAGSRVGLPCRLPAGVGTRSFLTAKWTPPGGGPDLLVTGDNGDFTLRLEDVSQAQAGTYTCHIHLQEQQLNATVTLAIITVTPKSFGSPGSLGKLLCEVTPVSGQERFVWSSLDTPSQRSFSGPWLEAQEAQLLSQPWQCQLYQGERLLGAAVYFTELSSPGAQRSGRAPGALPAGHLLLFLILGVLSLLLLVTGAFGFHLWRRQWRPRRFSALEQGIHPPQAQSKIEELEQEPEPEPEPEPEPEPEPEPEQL
- test: cell-based or functional assay
EC50, ability to activate T cells in vitro (LAG3/NFAT Reporter-Jurkat) reference
reported endpoint: EC50, ability to activate T cells in vitro (LAG3/NFAT Reporter-Jurkat)

| binder | value observed |
| --- | --- |
| anti-human LAG-3 full human monoclonal antibody MV705-3 (antibody, human IgG4, V domains shown, Full IgG4 with lambda light chain; also called MV705-3(DD + DD)) VH: EVQLLESGAEVKKPGASVKVSCKASGYTFTSYGISWVRQAPGQGLEWMGWISAYNGNTNYAQKLQGRVTMTTDTSTSTAYMELRSLRSDDTAVYYCARDGWWELLRPDDAFDIWGQGTTVTVSS VL: QLVLTQSPSVSVSPGQTASITCSGDKLGDKYAYWYQQKPGQAPVLVIYYDSDRPSGIPERFSGSNSGNTATLTISRVEAGDEADYYCQVWDSSSDQVVFGGGTQLTVLG | 0.13 µg/mL |
| MV705-3-VH-ED + DD-IgG4 (antibody, V domains shown, human IgG4 S228P constant region, MV705-3 lambda light chain; also called 13381; 13381 (ED + DD)) VH: EVQLLESGAEVKKPGASVKVSCKASGYTFTSYGISWVRQAPGQGLEWMGWISAYNGNTNYAQKLQGRVTMTTDTSTSTAYMELRSLRSEDTAVYYCARDGWWELLRPDDAFDIWGQGTTVTVSS VL: QLVLTQSPSVSVSPGQTASITCSGDKLGDKYAYWYQQKPGQAPVLVIYYDSDRPSGIPERFSGSNSGNTATLTISRVEAGDEADYYCQVWDSSSDQVVFGGGTQLTVLG | 0.1 µg/mL |
| MV705-3-VH-DE + DD-IgG4 (antibody, V domains shown, human IgG4 S228P constant region, MV705-3 lambda light chain; also called 13380; 13380 (DE + DD)) VH: EVQLLESGAEVKKPGASVKVSCKASGYTFTSYGISWVRQAPGQGLEWMGWISAYNGNTNYAQKLQGRVTMTTDTSTSTAYMELRSLRSDETAVYYCARDGWWELLRPDDAFDIWGQGTTVTVSS VL: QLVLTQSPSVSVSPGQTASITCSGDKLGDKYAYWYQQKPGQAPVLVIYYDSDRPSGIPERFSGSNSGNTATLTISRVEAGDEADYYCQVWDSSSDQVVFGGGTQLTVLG | 0.05 µg/mL |
| MV705-3-VH-ED + ED-IgG4 (antibody, V domains shown, human IgG4 S228P constant region, MV705-3 lambda light chain; also called 13616; 13616 (ED + ED)) VH: EVQLLESGAEVKKPGASVKVSCKASGYTFTSYGISWVRQAPGQGLEWMGWISAYNGNTNYAQKLQGRVTMTTDTSTSTAYMELRSLRSEDTAVYYCARDGWWELLRPEDAFDIWGQGTTVTVSS VL: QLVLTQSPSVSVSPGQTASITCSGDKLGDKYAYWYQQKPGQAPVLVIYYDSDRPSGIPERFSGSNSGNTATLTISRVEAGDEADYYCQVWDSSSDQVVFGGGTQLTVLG | > 30 µg/mL |
| MV705-3-VH-DE + ED-IgG4 (antibody, V domains shown, human IgG4 S228P constant region, MV705-3 lambda light chain; also called 13563; 13563 (DE + ED)) VH: EVQLLESGAEVKKPGASVKVSCKASGYTFTSYGISWVRQAPGQGLEWMGWISAYNGNTNYAQKLQGRVTMTTDTSTSTAYMELRSLRSDETAVYYCARDGWWELLRPEDAFDIWGQGTTVTVSS VL: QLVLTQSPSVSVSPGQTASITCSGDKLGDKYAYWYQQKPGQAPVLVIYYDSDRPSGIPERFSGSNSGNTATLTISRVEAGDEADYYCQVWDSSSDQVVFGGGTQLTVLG | > 30 µg/mL |
| MV705-3-VH-DD + ED-IgG4 (antibody, V domains shown, human IgG4 S228P constant region, MV705-3 lambda light chain; also called 13386; 13386 (DD + ED)) VH: EVQLLESGAEVKKPGASVKVSCKASGYTFTSYGISWVRQAPGQGLEWMGWISAYNGNTNYAQKLQGRVTMTTDTSTSTAYMELRSLRSDDTAVYYCARDGWWELLRPEDAFDIWGQGTTVTVSS VL: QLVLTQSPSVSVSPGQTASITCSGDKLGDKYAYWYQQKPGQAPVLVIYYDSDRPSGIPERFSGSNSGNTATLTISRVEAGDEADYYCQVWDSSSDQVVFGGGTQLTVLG | > 30 µg/mL |
